Origin of values: ChEMBL document CHEMBL3232945

# Tested on: Rattus norvegicus
# Assay name: Toxicity in anesthetized-normotensive Wistar rat assessed as heart rate at 40 mg/kg, ip after 45 mins (reference value: 316.82 +/- 8.452 bpm)
# Type: organism-based
# Parameters: dose 40 mg/kg, route intraperitoneal
# Particulars: in vivo, 0.75 h
Items are presented alongside their recorded Activity.

# Compound, Activity
records = [
    ("O=C1/C(=C\\c2ccccc2)S/C(=N\\c2ccccc2)N1CC(O)CN1CCN(c2ccccc2)CC1 (centres undefined)", "287.25 bpm"),
    ("CCCCN(CCCC)CC(O)CN1C(=O)/C(=C\\c2ccccc2)S/C1=N\\c1ccccc1 (centres undefined)", "283.5 bpm"),
    ("CN1CCN(CC(O)CN2C(=O)/C(=C\\c3ccccc3)S/C2=N\\c2ccccc2)CC1 (centres undefined)", "283.56 bpm"),
    ("CCCN(CCC)CC(O)CN1C(=O)/C(=C\\c2ccccc2)S/C1=N\\c1ccccc1 (centres undefined)", "305.32 bpm"),
    ("O=C1/C(=C\\c2ccccc2)S/C(=N\\c2ccccc2)N1CC(O)CN1CCN(Cc2ccccc2)CC1 (centres undefined)", "298.21 bpm"),
    ("O=C1/C(=C\\c2ccccc2)S/C(=N\\c2ccccc2)N1CC(O)CN1CCN(C2CCCCC2)CC1 (centres undefined)", "294.42 bpm"),
    ("O=C1/C(=C\\c2ccccc2)S/C(=N\\c2ccccc2)N1CC(O)CN1CCOCC1 (centres undefined)", "294.42 bpm"),
    ("CC(C)N1CCN(CC(O)CN2C(=O)/C(=C\\c3ccccc3)S/C2=N\\c2ccccc2)CC1 (centres undefined)", "253.26 bpm"),
    ("O=C1/C(=C\\c2ccccc2)S/C(=N\\c2ccccc2)N1CC(O)CN1CCCCC1 (centres undefined)", "274.15 bpm"),
]
